target-under-test: CB2 receptor (Homo sapiens)
Sequence (P34972 whole entry): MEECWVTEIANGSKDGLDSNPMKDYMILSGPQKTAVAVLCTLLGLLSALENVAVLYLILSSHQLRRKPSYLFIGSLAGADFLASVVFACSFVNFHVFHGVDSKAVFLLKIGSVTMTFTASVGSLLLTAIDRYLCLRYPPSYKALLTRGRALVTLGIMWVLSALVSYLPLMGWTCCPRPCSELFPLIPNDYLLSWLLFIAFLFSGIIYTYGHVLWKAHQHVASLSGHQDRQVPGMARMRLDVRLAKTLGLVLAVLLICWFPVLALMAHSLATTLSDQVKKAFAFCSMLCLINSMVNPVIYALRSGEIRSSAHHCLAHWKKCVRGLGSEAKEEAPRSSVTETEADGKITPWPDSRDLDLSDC
experimental-protocol: biochemical
Type: binding
Design: expressed in transfected cells; host or cells: CHO cells (membrane preparation)
condition-context: Table S1, selectivity index from Ki values
Reported CB2 selectivity Ki CB1/KiCB2 values for the following compounds.

compound	CB2 selectivity Ki CB1/KiCB2
CN1CCCCC(Cn2cc(C(=O)C3C(C)(C)C3(C)C)c3ccccc32)C1 (stereo not drawn) [Compound 44, AB005-azepane-isomer]	47.2
COc1cccc2c(C(=O)C3C4(C)CCC(C4)C3(C)C)c(C)n(CCN3CCOCC3)c12 (stereo not shown)	282
CC1(C)C(C(=O)c2cn(Cc3ccc(F)cc3)c3ccccc23)C1(C)C	16.5
Cc1c(C(=O)C2C(C)(C)C2(C)C)c2ccccc2n1CCCCCF	4.2
CCCCCn1cc(C(=O)C2C(C)(C)C2(C)C)c2ccccc21	37.5
CCCCCn1cc(C(=O)c2ccccc2OC)c2ccccc21	9.3
CCCC(F)Cn1cc(C(=O)C2C(C)(C)C2(C)C)c2ccccc21 (stereo not drawn) [Compound 39, XLR-11-2-fluoropentyl-isomer]	32.5
O=C(NC12CC3CC(CC(C3)C1)C2)c1nn(Cc2ccc(F)cc2)c2ccccc12	6.1
CC1(C)C(C(=O)c2cn(CCCCCF)c3ccccc23)C1(C)C	48.4
CCCCCn1nc(C(=O)Nc2cccc3ccccc23)c2ccccc21	1.1

----------
target-under-test: human GPR55 (Homo sapiens, UniProt Q9Y2T6)
Construct: β-galactosidase enzyme fragment (PathHunter complementation tag)
Sequence (Q9Y2T6 whole entry, the tested form may be a part): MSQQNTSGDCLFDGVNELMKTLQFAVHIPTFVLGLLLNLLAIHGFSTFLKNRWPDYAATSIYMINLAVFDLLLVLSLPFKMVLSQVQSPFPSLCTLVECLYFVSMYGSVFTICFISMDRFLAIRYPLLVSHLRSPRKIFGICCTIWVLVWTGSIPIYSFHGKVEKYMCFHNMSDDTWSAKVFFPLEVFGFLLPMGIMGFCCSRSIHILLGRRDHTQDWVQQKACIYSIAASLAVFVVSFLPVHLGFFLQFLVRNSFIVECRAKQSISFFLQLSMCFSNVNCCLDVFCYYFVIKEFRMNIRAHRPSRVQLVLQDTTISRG
experimental-protocol: β-Arrestin recruitment assay (PathHunter) at GPR55
Type: cell-based

test-smiles	target-under-test	EC50
CCCCCn1nc(C(=O)c2cccc3ccccc23)c2ccccc21	human GPR55 (Homo sapiens, UniProt Q9Y2T6)	> 10 µM
CC1(C)C(C(=O)c2cn(Cc3ccc(F)cc3)c3ccccc23)C1(C)C	human GPR55 (Homo sapiens, UniProt Q9Y2T6)	> 10 µM
CC1(C)C(C(=O)c2nn(CCCCCF)c3ccccc23)C1(C)C	human GPR55 (Homo sapiens, UniProt Q9Y2T6)	> 10 µM
CCCCCn1cc(C(=O)Nc2ccccc2)c2ccccc21	human GPR55 (Homo sapiens, UniProt Q9Y2T6)	> 10 µM
O=C(Oc1cccc2cccnc12)c1cn(Cc2ccc(F)cc2)c2ccccc12	human GPR55 (Homo sapiens, UniProt Q9Y2T6)	> 10 µM
CCCCCn1cc(C(=O)C2C(C)(C)C2(C)C)c2ccccc21	human GPR55 (Homo sapiens, UniProt Q9Y2T6)	> 10 µM
O=C(Oc1cccc2cccnc12)c1cn(CCCCCF)c2ccccc12	human GPR55 (Homo sapiens, UniProt Q9Y2T6)	> 10 µM
O=C(NC12CC3CC(CC(C3)C1)C2)c1cn(CCCCCF)c2ccccc12	human GPR55 (Homo sapiens, UniProt Q9Y2T6)	> 10 µM

----------
target-under-test: human GPR55 (Homo sapiens)
Construct: β-galactosidase enzyme fragment (PathHunter complementation tag)
experimental-protocol: β-Arrestin recruitment assay (PathHunter) at GPR55
Type: cell-based
condition-context: β-arrestin assay; percent in brackets beside IC50
Reported Human GPR55 % inhibition values for the following compounds.
measured-attribute: Human GPR55 % inhibition (%)

compound	measured-attribute	unit-name	readout-value
O=C(c1cccc2ccccc12)c1nn(CCCCCF)c2ccccc12	Human GPR55 % inhibition	%	47
CCCCCn1nc(C(=O)Nc2cccc3cccnc23)c2ccccc21	Human GPR55 % inhibition	%	50
O=C(Oc1cccc2ccccc12)c1cn(CCCCCF)c2ccccc12	Human GPR55 % inhibition	%	23
CCCCCn1nc(C(=O)Oc2cccc3ccccc23)c2ccccc21	Human GPR55 % inhibition	%	23
O=C(Nc1cccc2ccccc12)c1nn(CCCCCF)c2ccccc12	Human GPR55 % inhibition	%	−5
O=C(Oc1cccc2cccnc12)c1cn(Cc2ccc(F)cc2)c2ccccc12	Human GPR55 % inhibition	%	24
CCCCCn1nc(C(=O)Nc2cccc3ccccc23)c2ccccc21	Human GPR55 % inhibition	%	35
O=C(Nc1cccc2ccccc12)c1cn(CCCCCCl)c2ccccc12	Human GPR55 % inhibition	%	5
COc1cccc2c(C(=O)C3C4(C)CCC(C4)C3(C)C)c(C)n(CCN3CCOCC3)c12 (centres unmarked)	Human GPR55 % inhibition	%	47
O=C(Oc1cccc2cccnc12)c1cn(CC2CCCCC2)c2ccccc12	Human GPR55 % inhibition	%	34

----------
target-under-test: human GPR18 (Homo sapiens)
Construct: β-galactosidase enzyme fragment (PathHunter complementation tag)
Sequence (Q14330 1-331): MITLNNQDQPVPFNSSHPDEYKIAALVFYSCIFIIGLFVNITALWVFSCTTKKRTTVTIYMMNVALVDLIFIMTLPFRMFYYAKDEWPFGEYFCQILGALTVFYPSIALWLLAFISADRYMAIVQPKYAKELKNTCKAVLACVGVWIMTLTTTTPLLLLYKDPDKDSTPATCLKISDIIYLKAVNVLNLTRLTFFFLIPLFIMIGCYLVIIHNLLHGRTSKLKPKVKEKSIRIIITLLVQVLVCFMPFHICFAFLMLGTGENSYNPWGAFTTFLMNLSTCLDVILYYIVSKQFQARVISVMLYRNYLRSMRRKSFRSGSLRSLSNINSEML
experimental-protocol: β-Arrestin recruitment assay (PathHunter) at GPR18
Assay type: cell-based
condition-context: β-arrestin assay; percent in brackets beside EC50 >10 µM
Reported Human GPR18 % activation values for the following compounds.

compound	Human GPR18 % activation (%)
O=C(Oc1cccc2cccnc12)c1cn(CC2CCCCC2)c2ccccc12 [Compound 27, BB-22]	2
O=C(Nc1cccc2cccnc12)c1nn(CCCCCF)c2ccccc12 [Compound 11, 5F-THJ]	−17
O=C(NC12CC3CC(CC(C3)C1)C2)c1nn(Cc2ccc(F)cc2)c2ccccc12 [Compound 18]	−27
CC1(C)C(C(=O)c2cn(CCCC(F)(F)F)c3ccccc23)C1(C)C [Compound 41, XLR-12]	27
Cc1c(C(=O)C2C(C)(C)C2(C)C)c2ccccc2n1CCCCCF [Compound 47, M-144]	−7
O=C(Nc1cccc2ccccc12)c1cn(CCCCCCl)c2ccccc12 [Compound 6, 5Cl-NNEI]	1
CCCCCn1cc(C(=O)C2C(C)(C)C2(C)C)c2ccccc21 [Compound 37, UR-144]	17
CCCCCn1cc(C(=O)Nc2cccc3ccccc23)c2ccccc21 [Compound 4, NNEI]	42

----------
target-under-test: UniProtKB P34972
experimental-protocol: biochemical
Assay type: binding
Design: expressed in transfected cells; host or cells: CHO cells (membrane preparation)
condition-context: versus 0.1 nM [3H]CP55,940; CHO cell membranes; mean ± SEM of three to five experiments; read-out: Ki ± SEM Human CB2
pKi: −log10 of the molar value.
Reported pKi values for the following molecules.

molecule	pKi
CC1(C)C(C(=O)c2cn(CCCC(F)(F)F)c3ccccc23)C1(C)C [Compound 41, XLR-12]	9.08
CCCCCn1cc(C(=O)NCc2ccccc2)c2ccccc21 [Compound 12, SDB-006]	6.73
CCCCCn1cc(C(=O)Oc2cccc3cccnc23)c2ccccc21 [Compound 24, PB-22]	9.36
O=C(Oc1cccc2cccnc12)c1cn(CC2CCCCC2)c2ccccc12 [Compound 27, BB-22]	9.47

----------
target-under-test: UniProt P21554
Sequence (P21554 whole entry): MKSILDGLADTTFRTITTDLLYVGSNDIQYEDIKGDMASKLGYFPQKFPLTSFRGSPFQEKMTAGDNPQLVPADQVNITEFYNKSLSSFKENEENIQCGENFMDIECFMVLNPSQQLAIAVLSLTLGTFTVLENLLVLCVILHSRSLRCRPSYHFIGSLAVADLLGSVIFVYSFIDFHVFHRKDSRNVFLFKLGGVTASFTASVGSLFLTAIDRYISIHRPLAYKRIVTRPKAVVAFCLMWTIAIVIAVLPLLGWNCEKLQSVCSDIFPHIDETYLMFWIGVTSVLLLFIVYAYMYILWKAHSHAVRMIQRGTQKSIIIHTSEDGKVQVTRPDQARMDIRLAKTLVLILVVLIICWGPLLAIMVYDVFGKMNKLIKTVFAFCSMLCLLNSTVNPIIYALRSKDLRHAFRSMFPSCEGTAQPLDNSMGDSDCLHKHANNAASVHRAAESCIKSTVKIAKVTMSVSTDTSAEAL
experimental-protocol: biochemical
Format: binding
Parameters: expressed in transfected cells; host or cells: CHO cells (membrane preparation)
condition-context: versus 0.1 nM [3H]CP55,940; CHO cell membranes; mean ± SEM of three to five experiments; read-out: Ki ± SEM Human CB1
pKi: −log10 of the molar value.
Reported pKi values for the following compounds.
measured-attribute: pKi

test-smiles	measured-attribute	readout-value
O=C(NCc1ccccc1)c1cn(CCCCCF)c2ccccc12	pKi	7.14
O=C(Nc1cccc2cccnc12)c1nn(CCCCCF)c2ccccc12	pKi	7.65
CCc1ccc(C(=O)c2cn(CCCCCF)c3ccccc23)c2ccccc12	pKi	9.42
O=C(Oc1cccc2cccnc12)c1cn(CCCCCF)c2ccccc12	pKi	9.33
CC1(C)C(C(=O)c2cn(CCCC(F)(F)F)c3ccccc23)C1(C)C	pKi	7.36
O=C(c1cccc2ccccc12)c1nn(CCCCCF)c2ccccc12	pKi	8.87
O=C(NC12CC3CC(CC(C3)C1)C2)c1cn(CCCCCF)c2ccccc12	pKi	8.60

----------
Reported pIC50 values for the following molecules.
target-under-test: human GPR18 (Homo sapiens)
Construct: β-galactosidase enzyme fragment (PathHunter complementation tag)
experimental-protocol: β-Arrestin recruitment assay (PathHunter) at GPR18
Type: cell-based
condition-context: read-out: Human GPR18 IC50; β-arrestin assay, antagonist mode
pIC50: −log10 of the molar value.

molecule	pIC50
COc1cccc2c(C(=O)C3C4(C)CCC(C4)C3(C)C)c(C)n(CCN3CCOCC3)c12 (centres unmarked) [Compound 48, MN-25]	< 5.00
CN1CCCCC(Cn2cc(C(=O)C3C(C)(C)C3(C)C)c3ccccc32)C1 (stereo not drawn) [Compound 44, AB005-azepane-isomer]	< 5.00
